# target: mGAT1 (Mus musculus, UniProt P31648)
# Construct: expressed in transfected cells; host or cells: HEK293
# test-description: [^3H]GABA uptake assay, HEK293 cells expressing mGAT1
# Type: cell-based
# experimental-setup: HEK293; in presence of 100 μM compound
# Experimental: For compounds with pIC50 ([^3H]GABA uptake assay) or pK i (MS Binding Assays) values close to or above 5.0, these experiments were repeated twice and SEM have been calculated. [^3H]GABA uptake assays: The [^3H]GABA uptake assays were performed according to Kragler et al.33 Cells were grown in 150 cm^2 plates to a confluence of 70–90 % up to passage 25. […] Non‐specific uptake was determined in presence of 10 mM GABA for mGAT1, mGAT3 and mGAT4 or 100 mM GABA for mGAT2, respectively. […]
Field 'label' (enum: 1 (yes) / 0 (no)). Set to 1 (yes) when remaining activity at 100 µM is strictly under 70%; else 0 (no).

- compound: "CCOC(=O)C1CCCN(CCOC(c2ccc(CNC(C)(C)C(=O)OCC)cc2)(c2ccc(OC)cc2)c2ccc(OC)cc2)C1 (racemic) [12 q]"
  group: "1 (yes)"
- compound: "COc1ccc(C(OCCN2CCCC(C(=O)O)C2)(c2ccc(CNC3(C(=O)O)CC3)cc2)c2ccc(OC)cc2)cc1 (racemic) [5 p]"
  group: "0 (no)"

*Q* Below 70% on remaining activity at 100 µM? Entry COc1ccc(C(OCCN2CCCC(C(=O)O)C2)(c2ccc(OC)cc2)c2ccc(C(=O)O)cc2)cc1 (racemic) [5 e]
*A* 0 (no)

*Q* Below 70% on remaining activity at 100 µM? Entry COc1ccc(C(OCCN2CCCC(C(=O)O)C2)(c2ccc(OC)cc2)c2ccc3nccn3c2)cc1 (racemic) [5 d]
*A* 0 (no)

*Q* Below 70% on remaining activity at 100 µM? Entry CCOC(=O)C1CCCN(CCOC(c2ccc(CO)cc2)(c2ccc(OC)cc2)c2ccc(OC)cc2)C1 (racemic) [12 m]
*A* 1 (yes)

*Q* Below 70% on remaining activity at 100 µM? Entry CCOC(=O)C1CCCN(CCCC(O)(c2ccc(OC)cc2)c2ccc(OC)cc2)C1 (racemic) [12 l]
*A* 0 (no)

*Q* Below 70% on remaining activity at 100 µM? Entry COc1ccc(C(OCCN2CCCC(C(=O)O)C2)(c2ccc(CNc3ccc(C(=O)O)cc3)cc2)c2ccc(OC)cc2)cc1 (racemic) [5 t]
*A* 0 (no)

*Q* Below 70% on remaining activity at 100 µM? Entry CCOC(=O)C1CCCN(CCOC(c2ccc(C=O)cc2)(c2ccc(OC)cc2)c2ccc(OC)cc2)C1 (racemic) [12 a]
*A* 1 (yes)

*Q* Below 70% on remaining activity at 100 µM? Entry CCOC(=O)C1CCCN(CCOC(c2ccc(OC)cc2)(c2ccc(OC)cc2)c2ccc(C(C)=O)cc2)C1 (racemic) [12 b]
*A* 0 (no)

*Q* Below 70% on remaining activity at 100 µM? Entry CCOC(=O)C1CCCN(CCOC(c2ccc(OC)cc2)(c2ccc(OC)cc2)c2ccc(C(N)=O)cc2)C1 (racemic) [12 j]
*A* 1 (yes)

*Q* Below 70% on remaining activity at 100 µM? Entry CCOC(=O)C1CCCN(CCOC(c2ccc(CNCCCC(=O)O)cc2)(c2ccc(OC)cc2)c2ccc(OC)cc2)C1 (racemic) [12 s]
*A* 1 (yes)
